- Target Desc: Muscarinic acetylcholine receptor M4 (Homo sapiens)
- Sequence (P08173 whole entry): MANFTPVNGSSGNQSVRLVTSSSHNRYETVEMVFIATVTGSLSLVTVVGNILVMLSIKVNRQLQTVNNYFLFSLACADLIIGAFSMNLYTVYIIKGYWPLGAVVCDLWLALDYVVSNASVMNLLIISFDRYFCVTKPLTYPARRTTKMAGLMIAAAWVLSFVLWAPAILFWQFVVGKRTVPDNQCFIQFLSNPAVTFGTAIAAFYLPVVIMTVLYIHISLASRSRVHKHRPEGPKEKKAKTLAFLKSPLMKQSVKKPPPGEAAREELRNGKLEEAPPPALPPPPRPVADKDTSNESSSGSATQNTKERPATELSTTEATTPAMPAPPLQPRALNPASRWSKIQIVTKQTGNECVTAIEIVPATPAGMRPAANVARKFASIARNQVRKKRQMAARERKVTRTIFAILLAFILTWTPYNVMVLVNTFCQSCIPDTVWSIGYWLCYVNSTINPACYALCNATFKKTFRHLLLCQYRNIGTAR
- Experiment Notes: Positive allosteric modulation of human M4 receptor expressed in CHO cells coexpressing Gqi5 assessed as increase in acetylcholine-induced calcium mobilization
- Type: functional, cell-based
- Test Settings: read-out: EC50
Readout Kind: EC50 (nM)

Worked examples follow.
In one line, give reported EC50 of the entry Cc1nnc2sc(C(=O)NCc3ccc(Br)cc3)c(N)c2c1C .
187

In one line, give reported EC50 of the entry Cc1nnc2sc(C(=O)NCc3ccc(-c4ccncc4F)cc3)c(N)c2c1C .
1720

In one line, give reported EC50 of the entry Cc1nnc2sc(C(=O)NCc3ccc(-c4ccncc4)cc3)c(N)c2c1C .
36

In one line, give reported EC50 of the entry Cc1ncc(-c2ccc(CNC(=O)c3sc4nnc(C)c(C)c4c3N)cc2)cn1 .
230

[a] Cc1nnc2sc(C(=O)NCc3ccc(-c4ccnc(F)c4)cc3)c(N)c2c1C
[b] Cc1nnc2sc(C(=O)NCc3cccc(Br)c3)c(N)c2c1C
[c] Cc1nnc2sc(C(=O)NCc3ccc(-c4ccccc4)cc3)c(N)c2c1C
Order the 3 compounds from highest to lowest EC50. Respond with the label ranking, as requested.
c, b, a
(c: 319 nM, b: 185 nM, a: 58 nM)

---

- Target Desc: UniProt:P08684
- Sequence (P08684 whole entry): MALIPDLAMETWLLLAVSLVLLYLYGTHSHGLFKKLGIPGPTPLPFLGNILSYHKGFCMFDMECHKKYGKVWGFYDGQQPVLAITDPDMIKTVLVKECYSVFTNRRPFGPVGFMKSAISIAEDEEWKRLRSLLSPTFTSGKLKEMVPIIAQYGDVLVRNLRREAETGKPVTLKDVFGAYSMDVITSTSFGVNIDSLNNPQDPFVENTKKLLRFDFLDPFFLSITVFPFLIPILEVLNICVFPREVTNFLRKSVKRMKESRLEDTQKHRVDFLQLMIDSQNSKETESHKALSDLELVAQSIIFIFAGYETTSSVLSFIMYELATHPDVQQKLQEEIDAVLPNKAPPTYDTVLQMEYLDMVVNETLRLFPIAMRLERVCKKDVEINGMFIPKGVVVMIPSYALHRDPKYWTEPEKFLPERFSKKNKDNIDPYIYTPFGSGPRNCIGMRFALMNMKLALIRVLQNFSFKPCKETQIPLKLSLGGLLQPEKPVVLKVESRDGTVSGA
Readout Kind: pIC50
Just the number, please; pIC50 means minus log10 of the concentration in mol/L.

Report the value of pIC50 obtained on UniProt:P08684 for Cc1nnc2sc(C(=O)NCc3ccc(-c4ccc(F)nc4)cc3)c(N)c2c1C .
4.60

---

- Target Desc: Muscarinic acetylcholine receptor M4 (Homo sapiens)
- Sequence (P08173 whole entry): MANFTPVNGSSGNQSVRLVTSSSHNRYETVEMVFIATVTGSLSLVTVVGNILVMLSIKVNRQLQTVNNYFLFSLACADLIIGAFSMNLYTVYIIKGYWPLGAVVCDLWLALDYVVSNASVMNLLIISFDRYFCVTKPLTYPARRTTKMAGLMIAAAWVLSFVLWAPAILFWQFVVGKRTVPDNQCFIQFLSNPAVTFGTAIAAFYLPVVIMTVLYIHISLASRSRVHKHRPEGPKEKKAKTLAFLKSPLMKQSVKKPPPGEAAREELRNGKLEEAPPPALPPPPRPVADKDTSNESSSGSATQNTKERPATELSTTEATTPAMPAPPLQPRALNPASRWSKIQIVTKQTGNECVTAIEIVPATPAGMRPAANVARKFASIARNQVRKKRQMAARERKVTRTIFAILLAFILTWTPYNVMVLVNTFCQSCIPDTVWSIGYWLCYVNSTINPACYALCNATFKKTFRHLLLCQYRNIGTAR
- Experiment Notes: Positive allosteric modulation of human M4 receptor expressed in CHO cells coexpressing Gqi5 assessed as increase in acetylcholine-induced calcium mobilization
- Format: functional, cell-based
- Test Settings: read-out: EC50
Readout Kind: EC50 (µM)

Worked examples follow.
Report the value of EC50 obtained on Muscarinic acetylcholine receptor M4 (Homo sapiens) for Cc1nnc2sc(C(=O)NCc3ccc(-c4cccnc4)cc3)c(N)c2c1C .
0.103

Report the value of EC50 obtained on Muscarinic acetylcholine receptor M4 (Homo sapiens) for Cc1nnc2sc(C(=O)NCc3ccc(-c4cccnc4F)cc3)c(N)c2c1C .
0.091

Report the value of EC50 obtained on Muscarinic acetylcholine receptor M4 (Homo sapiens) for Cc1nnc2sc(C(=O)NCc3ccc(-c4cnccn4)cc3)c(N)c2c1C .
0.159

Report the value of EC50 obtained on Muscarinic acetylcholine receptor M4 (Homo sapiens) for COc1ncc(-c2ccc(CNC(=O)c3sc4nnc(C)c(C)c4c3N)cc2)cn1 .
0.084

[a] Cc1nnc2sc(C(=O)NCc3ccc(-c4ccc(F)nc4)cc3)c(N)c2c1C
[b] Cc1nnc2sc(C(=O)NCc3ccc(-c4ccccn4)cc3)c(N)c2c1C
[c] Cc1nnc2sc(C(=O)NCc3cccc(-c4ccccc4)c3)c(N)c2c1C
[d] Cc1cc(-c2ccc(CNC(=O)c3sc4nnc(C)c(C)c4c3N)cc2)cnc1F
[e] Cc1nnc2sc(C(=O)NCc3ccc(-c4cncc(F)c4)cc3)c(N)c2c1C
Order the 5 compounds from highest to lowest EC50. Respond with the label ranking, as requested.
c, d, b, e, a
(c: 1.65 µM, d: 0.994 µM, b: 0.232 µM, e: 0.144 µM, a: 0.064 µM)

---

- Tested on: Rattus norvegicus
- Experiment Notes: Elimination half-life in Sprague-Dawley rat at 0.1 to 1 mg/kg, iv
- Assay type: ADME, organism-based
- Test Settings: in vivo
Readout Kind: beta t1/2 (h)

In one line, give reported beta t1/2 of the entry Cc1nnc2sc(C(=O)NCc3ccc(-c4ccncc4)cc3)c(N)c2c1C .
1.5

[P] Cc1nnc2sc(C(=O)NCc3ccc(-c4cccnc4F)cc3)c(N)c2c1C
[Q] Cc1nnc2sc(C(=O)NCc3ccc(-c4ccnc(F)c4)cc3)c(N)c2c1C
[R] Cc1nnc2sc(C(=O)NCc3ccc(-c4ccc(F)nc4)cc3)c(N)c2c1C
I would appreciate it if you could sort these 3 molecules by beta t1/2, starting from the smallest number. Respond with the label ranking, as requested.
R, Q, P
(R: 0.48 h, Q: 1.7 h, P: 2.7 h)

---

pIC50: −log10 of the molar value.
Recorded below: pIC50, system UniProt P10635.
Sequence (P10635 whole entry): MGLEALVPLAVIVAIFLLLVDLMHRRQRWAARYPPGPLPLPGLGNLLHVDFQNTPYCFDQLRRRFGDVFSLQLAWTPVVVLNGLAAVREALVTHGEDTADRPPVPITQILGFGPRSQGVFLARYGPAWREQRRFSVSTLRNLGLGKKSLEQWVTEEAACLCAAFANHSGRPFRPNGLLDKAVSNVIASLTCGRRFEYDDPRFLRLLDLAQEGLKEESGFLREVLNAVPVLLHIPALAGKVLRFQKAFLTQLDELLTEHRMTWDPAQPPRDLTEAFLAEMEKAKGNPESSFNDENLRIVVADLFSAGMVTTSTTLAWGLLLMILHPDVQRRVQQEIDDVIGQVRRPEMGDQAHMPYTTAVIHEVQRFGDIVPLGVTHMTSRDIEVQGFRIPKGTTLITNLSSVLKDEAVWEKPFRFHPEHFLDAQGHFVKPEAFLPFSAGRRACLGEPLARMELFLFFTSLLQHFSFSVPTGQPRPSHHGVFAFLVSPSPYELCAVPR
Readout Kind: pIC50

[P] Cc1nnc2sc(C(=O)NCc3ccc(-c4ccncc4)cc3)c(N)c2c1C
[Q] Cc1nnc2sc(C(=O)NCc3ccc(-c4cccnc4F)cc3)c(N)c2c1C
Which entry has a larger number for pIC50, P or Q ? Label of pick, please.
P
(P: 5.89, Q: 4.72)

---

- Experiment Notes: Unbound plasma concentration in rat
- Format: ADME, cell-free
Readout Kind: fraction unbound

In one line, give reported fraction unbound of the entry Cc1nnc2sc(C(=O)NCc3ccc(-c4ccnc(F)c4)cc3)c(N)c2c1C .
0.002

[I] Cc1nnc2sc(C(=O)NCc3ccc(-c4ccncc4)cc3)c(N)c2c1C
[II] Cc1nnc2sc(C(=O)NCc3ccc(-c4cccnc4F)cc3)c(N)c2c1C
[III] Cc1nnc2sc(C(=O)NCc3ccc(-c4ccc(F)nc4)cc3)c(N)c2c1C
I would appreciate it if you could sort these 3 compounds by fraction unbound, starting from the smallest number. Respond with the label ranking, as requested.
II, III, I

---

- Target Desc: UniProtKB P11229
- Sequence (P11229 whole entry): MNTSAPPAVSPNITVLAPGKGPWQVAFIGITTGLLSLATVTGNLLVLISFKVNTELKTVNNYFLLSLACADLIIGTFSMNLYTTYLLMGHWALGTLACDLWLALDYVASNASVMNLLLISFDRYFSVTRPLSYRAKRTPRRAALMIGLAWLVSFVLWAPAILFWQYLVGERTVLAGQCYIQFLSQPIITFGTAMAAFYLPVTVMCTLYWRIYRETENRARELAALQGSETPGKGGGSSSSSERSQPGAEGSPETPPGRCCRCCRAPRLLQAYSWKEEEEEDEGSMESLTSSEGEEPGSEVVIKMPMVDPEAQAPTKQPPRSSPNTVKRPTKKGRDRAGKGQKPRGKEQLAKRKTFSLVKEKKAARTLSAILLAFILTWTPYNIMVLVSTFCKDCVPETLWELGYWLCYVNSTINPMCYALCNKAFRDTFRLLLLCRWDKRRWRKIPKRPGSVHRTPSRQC
- Experiment Notes: Activity at human M1 receptor
pEC50: −log10 of the molar value.
Readout Kind: pEC50

In one line, give reported pEC50 of the entry Cc1nnc2sc(C(=O)NCc3ccc(-c4cccnc4F)cc3)c(N)c2c1C .
< 4.52

---

- Experiment Notes: Unbound plasma concentration in human
- Format: ADME, cell-free
Readout Kind: fraction unbound

Worked examples follow.
In one line, give reported fraction unbound of the entry Cc1nnc2sc(C(=O)NCc3ccc(-c4ccnc(F)c4)cc3)c(N)c2c1C .
0.029

In one line, give reported fraction unbound of the entry Cc1nnc2sc(C(=O)NCc3ccc(-c4cccnc4F)cc3)c(N)c2c1C .
0.011

[P] Cc1nnc2sc(C(=O)NCc3ccc(-c4ccncc4)cc3)c(N)c2c1C
[Q] Cc1nnc2sc(C(=O)NCc3ccc(-c4ccc(F)nc4)cc3)c(N)c2c1C
Which entry has a larger number for fraction unbound, P or Q ? Label of pick, please.
Q
(Q: 0.023, P: 0.013)

---

- Experiment Notes: Brain to plasma permeability coefficient, Kp of the compound in Sprague-Dawley rat at 0.1 to 0.2 mg/kg, iv measured at 0.25 hrs post dose
- Assay type: ADME, organism-based
Readout Kind: Kp

In one line, give reported Kp of the entry Cc1nnc2sc(C(=O)NCc3ccc(-c4cccnc4F)cc3)c(N)c2c1C .
0.11

[I] Cc1nnc2sc(C(=O)NCc3ccc(-c4ccc(F)nc4)cc3)c(N)c2c1C
[II] Cc1nnc2sc(C(=O)NCc3ccc(-c4ccnc(F)c4)cc3)c(N)c2c1C
[III] Cc1nnc2sc(C(=O)NCc3ccc(-c4ccncc4)cc3)c(N)c2c1C
I would appreciate it if you could sort these 3 compounds by Kp, starting from the smallest number. Respond with the label ranking, as requested.
I, II, III
